These measurements were taken from patent US20130330346A1.

- SUBJECT_OF_TEST: T1, Cynomolgus CXCR2 (cynomolgus, UniProt Q28519 3-353 (rhesus entry))
- T1 construct: On transfected HEK293T or RBL-2H3 cells; native on cynomolgus neutrophils in the WBSC assay; also called cCXCR2; cynoCXCR2
- T1 chain: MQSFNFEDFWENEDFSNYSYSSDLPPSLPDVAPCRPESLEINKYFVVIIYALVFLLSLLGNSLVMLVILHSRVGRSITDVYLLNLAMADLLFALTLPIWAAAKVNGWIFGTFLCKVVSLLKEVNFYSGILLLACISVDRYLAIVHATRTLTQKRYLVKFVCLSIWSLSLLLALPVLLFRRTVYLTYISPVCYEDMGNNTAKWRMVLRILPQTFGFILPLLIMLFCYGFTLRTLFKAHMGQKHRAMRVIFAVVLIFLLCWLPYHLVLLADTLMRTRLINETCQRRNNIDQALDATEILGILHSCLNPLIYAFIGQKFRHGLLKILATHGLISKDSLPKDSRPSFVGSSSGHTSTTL
- ASSAY_PROCEDURE: FACS competition vs 3 nM FMAT-Blue Gro-α
OBSERVED_PROPERTY: pIC50
pIC50 here: minus log base 10 of the concentration, concentration in moles per litre.

# annotated cases, reported pIC50 shown
* CXCR20035 (other, Biparatopic: two VHH joined by a GlySer linker; also called 54B12-35GS-163E3; 54B12-163E3; not shown: C-terminal c-myc tag and His6 tag coded by pAX100) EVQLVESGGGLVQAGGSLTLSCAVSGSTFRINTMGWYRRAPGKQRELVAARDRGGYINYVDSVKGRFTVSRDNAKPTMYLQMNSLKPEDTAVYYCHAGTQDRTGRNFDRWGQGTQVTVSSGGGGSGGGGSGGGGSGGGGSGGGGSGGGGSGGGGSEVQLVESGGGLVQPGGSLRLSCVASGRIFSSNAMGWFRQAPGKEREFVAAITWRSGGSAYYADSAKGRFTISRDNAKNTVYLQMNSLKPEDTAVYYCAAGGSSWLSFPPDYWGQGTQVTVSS | 8.49
* CXCR20018 (other, Two different VHH joined by a GlySer linker; also called 137B7-35GS-97A9; not shown: C-terminal c-myc tag and His6 tag coded by pAX100) EVQLVESGGGLVQPGGSVRLSCVASGIIFRLSALGWTRQGPGKAREWVAGINSDGTTNYADPVKGRFTISRDNAKNTIYLHMDMLKPEDTAVYYCASGKYRGQGTQVTVSSGGGGSGGGGSGGGGSGGGGSGGGGSGGGGSGGGGSEVQLVESGGGLVQPGGSLRLSCVASGSIVRINTMGWYRQTPGKQRELVADITSGGNINYIDAVKGRFTISRDNTKNTVYLQMNSLKPEDTAVYYCNAEIVVLVGVWTQRARTGNYWGQGTQVTVSS | 7.29
* CXCR20021 (bispecific antibody, Biparatopic: two VHH joined by a GlySer linker; also called 127D1-35GS-163E3; 127D1-163E3; not shown: C-terminal c-myc tag and His6 tag coded by pAX100) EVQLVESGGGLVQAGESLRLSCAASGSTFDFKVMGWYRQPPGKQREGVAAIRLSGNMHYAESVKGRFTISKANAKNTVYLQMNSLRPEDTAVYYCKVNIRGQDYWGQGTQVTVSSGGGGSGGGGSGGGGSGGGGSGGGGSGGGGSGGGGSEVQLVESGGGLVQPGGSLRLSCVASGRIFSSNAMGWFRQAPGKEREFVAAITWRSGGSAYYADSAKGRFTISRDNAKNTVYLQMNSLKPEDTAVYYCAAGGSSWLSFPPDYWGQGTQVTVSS | 8.73
* CXCR20023 (bispecific antibody, Two different VHH joined by a GlySer linker; also called 163D2-35GS-163E3; not shown: C-terminal c-myc tag and His6 tag coded by pAX100) EVQLVESGGGLVQAGGSLRLSCAASGRTFSDYAMGWFRQAPGKEREFVAAITWNGGRVFYTASVKGRFTISRDNAKNTMYLQMNSLKPEDTAVYYCAADKDRRTDYLGHPVAYWGQGTQVTVSSGGGGSGGGGSGGGGSGGGGSGGGGSGGGGSGGGGSEVQLVESGGGLVQPGGSLRLSCVASGRIFSSNAMGWFRQAPGKEREFVAAITWRSGGSAYYADSAKGRFTISRDNAKNTVYLQMNSLKPEDTAVYYCAAGGSSWLSFPPDYWGQGTQVTVSS | 8.18

Okay, next one:
Field pIC50 (entry CXCR20029 (other, Biparatopic: two VHH joined by a GlySer linker; also called 163E3-35GS-54B12; not shown: C-terminal c-myc tag and His6 tag coded by pAX100) EVQLVESGGGLVQPGGSLRLSCVASGRIFSSNAMGWFRQAPGKEREFVAAITWRSGGSAYYADSAKGRFTISRDNAKNTVYLQMNSLKPEDTAVYYCAAGGSSWLSFPPDYWGQGTQVTVSSGGGGSGGGGSGGGGSGGGGSGGGGSGGGGSGGGGSEVQLVESGGGLVQAGGSLTLSCAVSGSTFRINTMGWYRRAPGKQRELVAARDRGGYINYVDSVKGRFTVSRDNAKPTMYLQMNSLKPEDTAVYYCHAGTQDRTGRNFDRWGQGTQVTVSS ) reads 8.68
